Ref: ChEMBL document CHEMBL1122420

assay: LD50 in mice following i.v. administration.; type: organism-based; conditions: mouse, in vivo, iv
endpoint: LD50
Write the numeric value and follow it with the unit.

Please give the measured LD50 for this compound: CN1C2CCC1[C@H](OC(=O)C13CC4CC(CC(C4)C1)C3)CC2 (single isomer, unassigned; (+))
32 mg/kg

Please give the measured LD50 for this compound: CN1C2CCC1[C@H](OC(=O)C(Cl)(c1ccccc1)c1ccccc1)CC2.Cl (single isomer, unassigned; (+))
22 mg/kg

Please give the measured LD50 for this compound: CN1C2CCC1[C@H](OC(=O)CC(O)(c1ccccc1)c1ccccc1)CC2 (single isomer, unassigned; (+))
18 mg/kg

Please give the measured LD50 for this compound: COc1cc(C(=O)O[C@@H]2CCC3CCC2N3C)cc(OC)c1OC (single isomer, unassigned; (+))
56 mg/kg

Please give the measured LD50 for this compound: CN1C2CCC1[C@H](OC(=O)C1c3ccccc3CCc3ccccc31)CC2 (single isomer, unassigned; (+))
32 mg/kg

Please give the measured LD50 for this compound: CCCC(C(=O)O[C@@H]1CCC2CCC1N2C)(c1ccccc1)c1ccccc1 (single isomer, unassigned; (+))
18 mg/kg

Please give the measured LD50 for this compound: CN1C2CCC1[C@H](OC(=O)C(CO)c1ccccc1)CC2 (single isomer, unassigned; (+))
50 mg/kg

Please give the measured LD50 for this compound: CN1C2CCC1[C@@H](OC(=O)C1c3ccccc3CCc3ccccc31)CC2 (single isomer, unassigned; (-))
18 mg/kg

Please give the measured LD50 for this compound: COc1cc(C(=O)O[C@H]2CCC3CCC2N3C)cc(OC)c1OC (single isomer, unassigned; (-))
18 mg/kg

Please give the measured LD50 for this compound: CN1C2CCC1[C@H](OC(=O)C(OCc1ccccc1)(c1ccccc1)c1ccccc1)CC2.Cl (single isomer, unassigned; (+))
56 mg/kg

Please give the measured LD50 for this compound: CCCOC(C(=O)O[C@@H]1CCC2CCC1N2C)(c1ccccc1)c1ccccc1 (single isomer, unassigned; (+))
22 mg/kg

Please give the measured LD50 for this compound: CN1C2CCC1[C@H](OC(=O)C(F)(c1ccccc1)c1ccccc1)CC2 (single isomer, unassigned; (+))
36 mg/kg

Please give the measured LD50 for this compound: CN1C2CCC1[C@H](OC(=O)c1cc(=O)c3ccccc3o1)CC2 (single isomer, unassigned; (+))
100 mg/kg

Please give the measured LD50 for this compound: CN1C2CCC1[C@H](OC(=O)N1c3ccccc3Sc3cccnc31)CC2 (single isomer, unassigned; (+))
32 mg/kg
